assay details: yeast display, Sf9 membrane polyspecificity reagent, FACS + sequencing; frameworks hold sequencing errors

| input sequence | polyreactivity (PSR sort gate) |
| --- | --- |
| QVQLVESGGGLVQAGGSLRLSCAASGFIFLSNAMGWYRQAPGKERELVAAITSGGSTNYADSVKGRFTISRDNAKNTVYLQMNSLKPEDTAVYYCAARAPQWTFALGRWDRDYWGQGTQVTVSS | low polyreactivity |
| QVQLVESGGGLVQAGGSLRLSCAASGSIFGAYAMGWYRQAPGKERELVAVIRWGGGSTYADSVKGRFTISRDNAKNTVYLQMNSLKPEDTAVYYCNRDKSWADLYSHAYDYWGQGTQVTVSS | low polyreactivity |

====

assay details: yeast display, Sf9 membrane polyspecificity reagent, FACS + sequencing; frameworks hold sequencing errors
measurement label: polyreactivity (PSR sort gate)

Worked set:
| input sequence | measurement label | recorded measurement |
| --- | --- | --- |
| QVQLVESGGGLVQAGGSLRLSCAASGFTFVRYAMGWYRQAPGKEREFVASISARGGNTFYADSVKGRFTISRDNAKNTVYLQMNSLKPEDTAVYYCNALTYFKRSEYYWGQGTQVTVSS | polyreactivity (PSR sort gate) | high polyreactivity |
| QVQLVESGGGLVQAGGSLRLSCAASGRIITAYAMGWNRQAPGKEREFVAAINVSGGSTYYADSVKGRFTISRDNAKNTVYLQMNSLKPEDTAVYYCNADYYYYDIYWWKMDYWGQGTQVTVSS | polyreactivity (PSR sort gate) | low polyreactivity |
| QVQLVESGGGLVQAGGSLRLSCAASGLIFYRYAMGWYRQAPRKERELVARISYRTTSTYYADSVKGRFTISRDNAKNNVYLQMNSLKPEDTAVYYCAASRFAYRVRYLFEYWGHGTQVTVSS | polyreactivity (PSR sort gate) | high polyreactivity |
| QVQLVVSGGGLVQAGGSLRLSCAASGSTFYAYAMGWYRQAPGKERELVARIRWRGGRTYYADSVKGRFTISRDNAKNTVYLRMNSLKPEDTAVYYCNRGYYSYYGRYYYWGQGTQVTLSS | polyreactivity (PSR sort gate) | high polyreactivity |
| QVQLVESGGGLVQAGGSLRLSCAASGSNFDTYAMGWYIPAPGKERELVAVLTWSGGGTYYSDSVKGRFTISRDNANNTVYLQMTSVKPEVTAVYYCNAADFGWDYASYYWGQGTQLTVSS | polyreactivity (PSR sort gate) | low polyreactivity |
| QVQHVQSGGGLVQAGGSLRLSCAAAGFIYNNAMGWYRQAPGKETELVATISTSGTDTYYADSVKGRFTISRDNAKNTVYLQMNSLKPEDTAVYYCNADTEIYDSYSSYWTRYEYWGQGTQVTVSS | polyreactivity (PSR sort gate) | low polyreactivity |

Dear colleague, could you please provide polyreactivity (PSR sort gate) for the sequences listed below?
1. QVQLVESGGGLVQAGGSLRLSCAASGFIFTYYAMGWYRAAPGKERELVAAIRGSGGRTYYADSVKGRFTISRDNAKNTVYLQMNSLKPEDTAVYYCTADPTWFGYVYYQYDYWGQGTQVTVSS
2. QVQLVESGGGLVQAGGSLRLSCAASGFTFYYNAMGWYRQAPGKERELVAIRFRGGNTYYADSVKGRFTISRDNAKNTVYLQMNSLKPEDTAVYYCNADDRGSTYVEFDYWGQGTQVTVSS
3. QVQLVESGGGLVQAGGSLRLSCAASGRTFAYYAMGWYRQAPGKERELVAAITQSGGRTYYADSVKGRFTISRDNAKNTVYLQMNSLKPEDTAVYYCAARRISGKWEYDYWGQGTQVTVSS
4. QVQLVESGGGLVQAGGSLRLSCAASGRIFAYYAMGWYRQAPGKERELVAAISSGGSTKYADSVKGRFTISRDNAKNTVYLQMNSLKPEDTAVYYCAAKYGYRKYRGFQNGGDYWGQGTQVNVSS
5. QVQLVESGGGLVQAGGSLRLSCAASGFTFYWNAMGWSRQAPGKERELVAAINGGDSTNYADSVKGRFTISRDNAKNTVYLQMNSLKPEDTAVYYCAAEPSLEAWTAFGSYYWGQGTQVTVSS
6. QVQLVESGGGVVQAGGSLRLSCAASGRIFHDYAMGWYRQAPGKERELVAGMTSGVRTYYADSVKGRFTISRDNEKNTVYLQMNSLKPEDTAVYYCARRLSPLYDYDYWGQGTQVTVSP
7. QVQLVESGAGLVQAGGSLRLSCAASGFTFNYYAMGWYRQAPGKERELVATITTSGGITYYADSVKGRFTISRDNAKNTVYLQMNSLKPEDTAVYYCAAGSYSRYLYSLYFDFDYWGQGTQVTVSS
8. QVKLVESGGGLVQAGGSLLLSCAASGRTFYRYAMGWYIQAPGKERELVARISSGGGTYYADSVKGRFTISRDNAKNTVYLQMNSLKPEVTAVYYCNADVYRWSGSYTGWDSWHDYWGQGTQVSVSS

A)
["low polyreactivity", "low polyreactivity", "high polyreactivity", "high polyreactivity", "low polyreactivity", "low polyreactivity", "low polyreactivity", "low polyreactivity"]

Dear colleague, could you please provide polyreactivity (PSR sort gate) for the sequences listed below?
1. QVHLVESGGGLVQAGGSLRLSCAASGRNFDNKAMGWYRQAPGKERELVATLSRNGGSTYYADSVKGRFTISRDNAKNTVYLQINRLKRDDTAVYYCNKRTRFIPSFDYWGQGTQVTVSS
2. QVQLVESGGGLVQAGGSLRLSCAASGITFPWYAMGWYIQAPGKERELVAAISFSGGSTYYADSVKWRFTISRDNAKNTVYLQMNCLKPVDTAVYYCAAVDGYSYIYAAGDYWGQGTQVTVSS

A)
1: low polyreactivity; 2: low polyreactivity

Batch request: polyreactivity (PSR sort gate) per item, same order as input.
1. QDQLVESGGGLVQAGGSLRLSCAASAFIFSSNAMGWYRQAPGKEREFVAAISFRGGTTYYADSVKGRFTISRDNAKNTVYLQMNSLKPEDTAVYYCNAVRWRSGRWWWYDYWGQGTQVTVSS
2. QVQLVESGGGIVQAGGSLRLSCAASGSTLWGNVMRSYRQAPGKERELVAVISKTGGSTYYADSVKGRFTISRDNAKNTVYLQMNSLKPEDSAVYYCATRWPYRSDWGLGTQVTVSS

A)
["low polyreactivity", "high polyreactivity"]

Hi team, please reply with polyreactivity (PSR sort gate) for each item in this list.
1. QVQLVESGGGLVQAGGSLRLSCAASGSISYQNAMGWYRQAPGKERELVAAITSSGGNTYYADSVKGRFTISRDNAKNTVYLQMNSLKPEDTAVYYCNAVLYYDSYLYYYWGQGTQVTVSS
2. QVQLVESGGGLVQAGGSLRLSCAASGFTFFTNAMGWYRKAPGKEREFVAAISGSGSRTYYADSVKGRFTISRDNAKNTVYLQMNSLIPEDTAVYYCAARVRGVYPFDYWGQGTQVTVSS

A)
1. low polyreactivity
2. high polyreactivity

Q) Entry QVQLVESGGGLVQAGGSLRLSCAASGSTSPRNAMGWYRQAPGKERELVAAISSGGRTNYAVSVKGRFTISRDNAKNTVYLQMNSLKPEDTAVYYCAAAVQSTYWGQGTQVTVSS has what polyreactivity (PSR sort gate)?
A) low polyreactivity
